test system: Bacillus subtilis; test: microbe, parasite or virus in culture; type: functional; settings: ATCC 6633
Description: Antibacterial activity against Bacillus subtilis ATCC 6633 by agar-dilution method
readout_type: MIC (µg/mL)

molecule	system_under_test	MIC / µg/mL
CCn1cc(C(=O)O)c(=O)c2cc(F)c(N3CCN(C/C(=N\OC)c4ccc(Cl)cc4Cl)CC3)nc21	Bacillus subtilis	12.5

a = CO/N=C(\CN1CCN(c2cc3c(cc2F)c(=O)c(C(=O)O)cn3C2CC2)CC1)c1ccccc1
b = CCn1cc(C(=O)O)c(=O)c2cc(F)c(N3CCN(C/C(=N\OC)c4ccc(F)cc4F)CC3)nc21
Task: Among a and b , which shows a numerically higher MIC result? State your choice using its label.
Output: a

A = CCn1cc(C(=O)O)c(=O)c2cc(F)c(N3CCN(C/C(=N\OC)c4ccccc4)CC3)cc21
B = CCn1cc(C(=O)O)c(=O)c2cc(F)c(N3CCN(C/C(=N\OC)c4ccc(F)cc4)CC3)cc21
Task: Among A and B , which shows a numerically higher MIC result? State your choice using its label.
Output: A
(A: 6.25 µg/mL, B: 3.13 µg/mL)

* * *

system: Staphylococcus aureus; experiment: microbe, parasite or virus in culture; assay type: functional; conditions: ATCC 6538P
Description: Antibacterial activity against Staphylococcus aureus ATCC 6538p by agar-dilution method
# MIC per entry
Dear colleague, please return just the value in µg/mL, with no unit written.

CO/N=C(\CN1CCN(c2cc3c(cc2F)c(=O)c(C(=O)O)cn3C2CC2)CC1)c1ccc(Cl)cc1Cl 0.39
O=C(CN1CCN(c2cc3c(cc2F)c(=O)c(C(=O)O)cn3C2CC2)CC1)c1ccc(Cl)cc1 0.39

Please turn your attention to the following entry.
MIC for `CCn1cc(C(=O)O)c(=O)c2cc(F)c(N3CCN(C/C(=N\OC)c4ccccc4)CC3)nc21` is 25

* * *

system: Bacillus subtilis; test: microbe, parasite or virus in culture; format: functional; details: ATCC 6633
# MIC per entry
Dear colleague, please return just the value in µg/mL, with no unit written.

Please review the following examples before continuing.
CO/N=C(\CN1CCN(c2cc3c(cc2F)c(=O)c(C(=O)O)cn3C2CC2)CC1)c1ccc(Cl)cc1Cl 0.025
O=C(CN1CCN(c2cc3c(cc2F)c(=O)c(C(=O)O)cn3C2CC2)CC1)c1ccc(Cl)cc1 0.049
CO/N=C(\CN1CCN(c2cc3c(cc2F)c(=O)c(C(=O)O)cn3C2CC2)CC1)c1ccccc1Cl 0.049

Please turn your attention to the following entry.
MIC for `CCn1cc(C(=O)O)c(=O)c2cc(F)c(N3CCN(C/C(=N\OC)c4ccc(Cl)cc4Cl)CC3)cc21` is 12.5

* * *

system: Bacillus subtilis; assay: microbe, parasite or virus in culture; assay type: functional; conditions: ATCC 6633
readout_type: MIC (µg/mL)

Please review the following examples before continuing.
molecule	readout_type	result_units	experimental_value
O=C(O)c1cn(C2CC2)c2cc(N3CCNCC3)c(F)cc2c1=O [CIPROFLOXACIN]	MIC	µg/mL	0.025
O=C(O)c1cn(C2CC2)c2cc(N3CCN(C/C(=N\O)c4ccc(Cl)cc4)CC3)c(F)cc2c1=O	MIC	µg/mL	0.78

I = CCn1cc(C(=O)O)c(=O)c2cc(F)c(N3CCN(C/C(=N\OC)c4ccc(F)cc4F)CC3)cc21
II = CCn1cc(C(=O)O)c(=O)c2cc(F)c(N3CCNCC3)nc21 [ENOXACIN]
III = CO/N=C(\CN1CCN(c2cc3c(cc2F)c(=O)c(C(=O)O)cn3C2CC2)CC1)c1ccc(F)cc1
IV = CCn1cc(C(=O)O)c(=O)c2cc(F)c(N3CCN(C/C(=N\OC)c4ccccc4)CC3)nc21
V = CO/N=C(\CN1CCN(c2cc3c(cc2F)c(=O)c(C(=O)O)cn3C2CC2)CC1)c1ccc(F)cc1F
Task: Put these in order: smallest MIC first, largest last. Sort and list the labels as requested.
Output: II, V, I, III, IV

* * *

# MIC per entry
tested on: Bacillus subtilis; test: microbe, parasite or virus in culture; type: functional; settings: ATCC 6633
Dear colleague, please return just the value in µg/mL, with no unit written.

CCn1cc(C(=O)O)c(=O)c2cc(F)c(N3CCN(C/C(=N\OC)c4ccc(F)cc4)CC3)nc21 6.25

MIC for `CO/N=C(\CN1CCN(c2cc3c(cc2F)c(=O)c(C(=O)O)cn3C2CC2)CC1)c1ccc(Cl)cc1` is 1.56

MIC for `CCn1cc(C(=O)O)c(=O)c2cc(F)c(N3CCNCC3)cc21` is 0.049

The reported numbers originate from ChEMBL document CHEMBL1138103.
